For reference, IC50 measured on Nicotinamide phosphoribosyltransferase (Homo sapiens):
Measurement Label: IC50 (nM)

| Compound | Tested System | Result Operator | Reported Value |
| --- | --- | --- | --- |
| CC(C)n1cc(S(=O)(=O)c2ccc(CNC(=O)c3cnc4[nH]ncc4c3)cc2)cn1 | Nicotinamide phosphoribosyltransferase (Homo sapiens) | = | 99 |
| O=C(NCc1ccc(S(=O)(=O)N2CCCCC2)cc1)c1cnc2[nH]ncc2c1 | Nicotinamide phosphoribosyltransferase (Homo sapiens) | = | 100 |
| CN(C)c1ccc(S(=O)(=O)c2ccc(CNC(=O)c3cnc4[nH]ncc4c3)cc2)cn1 | Nicotinamide phosphoribosyltransferase (Homo sapiens) | = | 12 |
| O=C(NCc1ccc(S(=O)(=O)N2CC3(CCOCC3)C2)cc1)c1cnc2[nH]ncc2c1 | Nicotinamide phosphoribosyltransferase (Homo sapiens) | = | 110 |
| O=C(NCc1ccc(S(=O)(=O)N2CCN(C3COC3)CC2)cc1)c1cnc2[nH]ncc2c1 | Nicotinamide phosphoribosyltransferase (Homo sapiens) | = | 440 |
| O=C(NCc1ccc(S(=O)(=O)c2ccccc2)cc1)c1cc2cn[nH]c2cn1 | Nicotinamide phosphoribosyltransferase (Homo sapiens) | > | 2000 |
| Cn1ncc2cc(C(=O)NCc3ccc(S(=O)(=O)c4ccccc4)cc3)cnc21 | Nicotinamide phosphoribosyltransferase (Homo sapiens) | = | 1700 |
